Details: in acetone, 308.32 K
readout kind: solubility (mole fraction)

[Q] Dear colleague, I am looking for the recorded solubility (mole fraction) of the following molecule: O=C(O)c1cccc([N+](=O)[O-])c1C(=O)O
[A] 0.0657

----------
Conditions: in water, 338.18 K
readout kind: solubility (mole fraction)
# output: bare number, no unit

[Q] Dear colleague, I am looking for the recorded solubility (mole fraction) of the following compound: O=C(O)c1cccc([N+](=O)[O-])c1C(=O)O
[A] 0.00943

----------
Conditions: in 1,4-dioxane, 308.26 K
readout kind: solubility (mole fraction)
# output: bare number, no unit

[Q] Dear colleague, I am looking for the recorded solubility (mole fraction) of the following molecule: O=C(O)c1cccc([N+](=O)[O-])c1C(=O)O
[A] 0.116

----------
Conditions: in 1,4-dioxane, 318.21 K
readout kind: solubility (mole fraction)
# output: bare number, no unit

[Q] Dear colleague, I am looking for the recorded solubility (mole fraction) of the following compound: O=C(O)c1cccc([N+](=O)[O-])c1C(=O)O
[A] 0.132

----------
Conditions: in n-butyl acetate, 293.21 K
readout kind: solubility (mole fraction)
# output: bare number, no unit

[Q] Dear colleague, I am looking for the recorded solubility (mole fraction) of the following compound: O=C(O)c1cccc([N+](=O)[O-])c1C(=O)O
[A] 0.00353

----------
Conditions: in n-butyl acetate, 353.26 K
readout kind: solubility (mole fraction)

[Q] Dear colleague, I am looking for the recorded solubility (mole fraction) of the following compound: O=C(O)c1cccc([N+](=O)[O-])c1C(=O)O
[A] 0.0116

----------
Settings: in ethyl formate, 293.21 K
readout kind: solubility (mole fraction)
# output: bare number, no unit

[Q] Dear colleague, I am looking for the recorded solubility (mole fraction) of the following compound: O=C(O)c1cccc([N+](=O)[O-])c1C(=O)O
[A] 0.00309

Source listed as BigSolDB 2.1.
